- test_target: Solute carrier organic anion transporter family member 1B1 (Homo sapiens)
- Sequence (Q9Y6L6 whole entry): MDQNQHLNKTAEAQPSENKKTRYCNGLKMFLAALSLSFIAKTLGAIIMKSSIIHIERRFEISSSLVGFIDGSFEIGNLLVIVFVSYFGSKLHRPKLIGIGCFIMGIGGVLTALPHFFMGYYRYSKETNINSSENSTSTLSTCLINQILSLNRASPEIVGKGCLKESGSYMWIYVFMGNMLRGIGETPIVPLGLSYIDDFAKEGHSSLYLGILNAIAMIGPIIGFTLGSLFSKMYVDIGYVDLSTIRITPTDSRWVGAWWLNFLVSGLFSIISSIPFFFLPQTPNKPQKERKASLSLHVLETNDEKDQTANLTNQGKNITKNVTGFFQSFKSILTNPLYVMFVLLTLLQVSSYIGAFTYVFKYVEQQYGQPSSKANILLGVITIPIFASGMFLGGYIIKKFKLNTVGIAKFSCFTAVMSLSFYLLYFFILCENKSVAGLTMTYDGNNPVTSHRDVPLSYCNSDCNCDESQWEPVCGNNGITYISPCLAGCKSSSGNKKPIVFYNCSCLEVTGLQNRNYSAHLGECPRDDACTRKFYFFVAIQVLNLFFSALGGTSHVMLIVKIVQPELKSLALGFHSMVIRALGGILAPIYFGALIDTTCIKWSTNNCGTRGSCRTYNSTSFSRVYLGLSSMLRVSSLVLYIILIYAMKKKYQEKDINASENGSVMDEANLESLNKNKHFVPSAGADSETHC
- particulars: chinese hamster, cho, 10 µM
residual activity by entry:

compound	result_units	residual activity
Cc1cc(C)nc(NS(=O)(=O)c2ccc(N)cc2)n1 [SULFAMETHAZINE]	%	90.46
CC1=C(CC(=O)O)c2cc(F)ccc2/C1=C\c1ccc([S+](C)[O-])cc1 (stereo unspecified)	%	240.6
COC(=O)/C(C)=C\CC12OC(C)(C)C3CC(C=C4C(=O)c5c(OC)c6c(c(CC=C(C)C)c5OC431)OC(C)(CCC=C(C)C)C=C6)C2=O (stereo unspecified) [DIMETHYL GAMBOGATE]	%	23.19
COC(=O)C[C@H]1C2(C)CC34OC5(C)O[C@@]6([C@H](OC(C)=O)C(OC(C)=O)[C@]7(C)C(/C(=C(/O)C(C)C)C(=O)O[C@H]7c7ccoc7)[C@@]6(O5)[C@H](OC(C)=O)[C@@]3(O)C2OC(=O)C(C)C)[C@]14C (stereo partly specified) [BUSSEIN]	%	7.307
COc1cc([C@@H]2c3cc4c(cc3[C@H](O)[C@H]3COC(=O)[C@H]23)OCO4)cc(OC)c1OC [PODOFILOX]	%	63.87
CC[C@@H](C(=O)[C@@H](C)[C@@H](O)[C@H](C)[C@@H]1O[C@@H]([C@@H](CC)C(=O)[O-])CC[C@@H]1C)[C@H]1O[C@]2(C=C[C@@H](O)[C@]3(CC[C@@](C)([C@H]4CC[C@](O)(CC)[C@H](C)O4)O3)O2)[C@H](C)C[C@@H]1C.[Na+] [SALINOMYCIN SODIUM]	%	21.72

* * *

residual activity by entry:
- test_target: Solute carrier organic anion transporter family member 1B3 (Homo sapiens, UniProt Q9NPD5)
- Sequence (Q9NPD5 whole entry): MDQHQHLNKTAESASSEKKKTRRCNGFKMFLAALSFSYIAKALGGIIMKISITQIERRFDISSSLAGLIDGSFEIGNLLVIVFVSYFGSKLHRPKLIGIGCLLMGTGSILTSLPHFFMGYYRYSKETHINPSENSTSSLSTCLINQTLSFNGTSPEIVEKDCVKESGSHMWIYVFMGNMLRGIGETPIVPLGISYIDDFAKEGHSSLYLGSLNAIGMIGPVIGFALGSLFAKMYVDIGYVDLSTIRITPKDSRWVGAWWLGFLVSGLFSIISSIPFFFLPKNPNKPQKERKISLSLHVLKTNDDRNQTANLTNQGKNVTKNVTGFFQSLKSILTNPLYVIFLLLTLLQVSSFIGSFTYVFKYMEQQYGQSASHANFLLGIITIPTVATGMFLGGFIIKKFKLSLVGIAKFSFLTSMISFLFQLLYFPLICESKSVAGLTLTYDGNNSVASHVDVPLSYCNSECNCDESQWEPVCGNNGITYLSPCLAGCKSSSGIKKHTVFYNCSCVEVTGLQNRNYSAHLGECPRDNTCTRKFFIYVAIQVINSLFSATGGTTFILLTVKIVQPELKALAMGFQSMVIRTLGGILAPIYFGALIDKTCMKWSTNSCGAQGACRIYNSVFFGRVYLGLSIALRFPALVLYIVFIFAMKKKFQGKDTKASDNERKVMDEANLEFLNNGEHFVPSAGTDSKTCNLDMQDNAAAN
- particulars: chinese hamster, cho, 10 µM
readout_kind: residual activity (%)

compound	test_target	result_units	experimental_result
CCC(=O)O[C@]1(C(=O)CCl)[C@@H](C)C[C@H]2[C@@H]3CCC4=CC(=O)C=C[C@]4(C)[C@@]3(F)[C@@H](O)C[C@@]21C [CLOBETASOL PROPIONATE]	Solute carrier organic anion transporter family member 1B3 (Homo sapiens, UniProt Q9NPD5)	%	21.34
Clc1ccc(COC(Cn2ccnc2)c2ccc(Cl)cc2Cl)cc1.O=[N+]([O-])O (stereo unspecified) [ECONAZOLE NITRATE]	Solute carrier organic anion transporter family member 1B3 (Homo sapiens, UniProt Q9NPD5)	%	127.4
COc1cc2c(cc1OC)[C@@]13CCN4CC5=CCO[C@H]6CC(=O)N2[C@H]1[C@H]6[C@H]5C[C@H]43	Solute carrier organic anion transporter family member 1B3 (Homo sapiens, UniProt Q9NPD5)	%	229.8
CCN(CC)CCNC(=O)c1cc(Cl)c(N)cc1OC.Cl	Solute carrier organic anion transporter family member 1B3 (Homo sapiens, UniProt Q9NPD5)	%	108.2
CC(C)=CCC/C(C)=C/CC/C(C)=C/CO	Solute carrier organic anion transporter family member 1B3 (Homo sapiens, UniProt Q9NPD5)	%	89.91
CN1CCc2cc3c(cc2C1O)OCO3.Cl (stereo unspecified) [HYDRASTININE HYDROCHLORIDE]	Solute carrier organic anion transporter family member 1B3 (Homo sapiens, UniProt Q9NPD5)	%	73.39
C=C(C)C1(O)OC(=O)C=C1OC (stereo unspecified)	Solute carrier organic anion transporter family member 1B3 (Homo sapiens, UniProt Q9NPD5)	%	96.2
O=C(Cc1cccs1)N[C@@H]1C(=O)N2C(C(=O)[O-])=C(C[n+]3ccccc3)CS[C@H]12	Solute carrier organic anion transporter family member 1B3 (Homo sapiens, UniProt Q9NPD5)	%	31.99
CCOc1ccc2ccccc2c1C(=O)N[C@@H]1C(=O)N2[C@@H]1SC(C)(C)[C@@H]2C(=O)[O-].O.[Na+] [NAFCILLIN SODIUM]	Solute carrier organic anion transporter family member 1B3 (Homo sapiens, UniProt Q9NPD5)	%	114.4
COc1cc(-c2coc3cc(O[C@@H]4O[C@H](CO)[C@@H](O)[C@H](O)[C@H]4O)c(OC)c(O)c3c2=O)cc(O)c1OC	Solute carrier organic anion transporter family member 1B3 (Homo sapiens, UniProt Q9NPD5)	%	90.79
CC(C)C1COc2cc3oc(=O)ccc3cc2O1 (stereo unspecified) [DIHYDRO-OBLIQUIN]	Solute carrier organic anion transporter family member 1B3 (Homo sapiens, UniProt Q9NPD5)	%	74.86
NC[C@@H]1CC[C@@H](N)[C@@H](O[C@H]2[C@H](O)[C@@H](O[C@H]3O[C@H](CO)[C@@H](O)[C@H](N)[C@H]3O)[C@H](N)C[C@@H]2N)O1	Solute carrier organic anion transporter family member 1B3 (Homo sapiens, UniProt Q9NPD5)	%	96.4
CN(C)CCC=C1c2ccccc2C=Cc2ccccc21.Cl [CYCLOBENZAPRINE HYDROCHLORIDE]	Solute carrier organic anion transporter family member 1B3 (Homo sapiens, UniProt Q9NPD5)	%	102.1
CC(C)=CCC[C@](C)(O)[C@@H]1CC=C(C)CC1	Solute carrier organic anion transporter family member 1B3 (Homo sapiens, UniProt Q9NPD5)	%	97.78
Cl.NCc1ccc(S(N)(=O)=O)cc1 [MAFENIDE HYDROCHLORIDE]	Solute carrier organic anion transporter family member 1B3 (Homo sapiens, UniProt Q9NPD5)	%	85.4
CC(=O)Oc1ccccc1C(=O)Oc1ccccc1C(=O)O [DIPLOSALSALATE]	Solute carrier organic anion transporter family member 1B3 (Homo sapiens, UniProt Q9NPD5)	%	93.37

* * *

- test_target: UniProtKB Q9NPD5
- Sequence (Q9NPD5 whole entry): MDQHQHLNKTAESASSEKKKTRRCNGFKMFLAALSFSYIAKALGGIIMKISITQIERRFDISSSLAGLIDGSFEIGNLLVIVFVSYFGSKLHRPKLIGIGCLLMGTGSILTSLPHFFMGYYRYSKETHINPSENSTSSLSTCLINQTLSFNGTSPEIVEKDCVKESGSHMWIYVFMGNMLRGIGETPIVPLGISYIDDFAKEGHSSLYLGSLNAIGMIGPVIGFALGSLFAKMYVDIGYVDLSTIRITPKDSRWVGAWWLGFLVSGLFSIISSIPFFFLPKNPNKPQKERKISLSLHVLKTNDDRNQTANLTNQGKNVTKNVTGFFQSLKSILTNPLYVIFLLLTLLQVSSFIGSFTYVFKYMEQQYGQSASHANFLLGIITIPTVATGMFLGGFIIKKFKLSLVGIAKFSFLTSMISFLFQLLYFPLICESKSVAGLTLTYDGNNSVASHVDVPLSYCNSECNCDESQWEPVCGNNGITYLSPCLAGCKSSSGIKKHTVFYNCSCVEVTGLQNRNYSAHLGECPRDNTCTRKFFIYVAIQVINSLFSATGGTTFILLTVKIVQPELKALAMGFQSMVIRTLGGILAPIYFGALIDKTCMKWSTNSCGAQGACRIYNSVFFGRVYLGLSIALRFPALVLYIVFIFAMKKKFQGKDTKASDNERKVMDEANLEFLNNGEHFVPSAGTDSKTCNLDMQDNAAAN
- particulars: chinese hamster, cho, 10 µM
readout_kind: residual activity (%)

compound	readout_kind	experimental_result
O=C(O)c1nc2cc(Cl)c(Cl)cc2nc1O	residual activity	108
COC(=O)C(C)c1ccc(C(=O)c2cccs2)cc1 (stereo not given)	residual activity	95.34
Oc1c(Cl)cc(Cl)c2cccnc12	residual activity	62.22
CCOc1ccc(C(=O)c2ccc(O)c(O)c2O)cc1 [2,3,4-TRIHYDROXY-4'-ETHOXYBENZOPHENONE]	residual activity	99.48
CC[C@@H](C)C(=O)O[C@H]1[C@H](O)[C@H]2[C@@H](CN3C[C@@H](C)CC[C@H]3[C@@]2(C)O)[C@@H]2C[C@]34O[C@]5(O)[C@@H](OC(=O)[C@](C)(O)[C@@H](C)O)CC[C@@]3(C)[C@@H]5[C@@H](OC(C)=O)[C@@H](OC(C)=O)[C@H]4[C@@]21O	residual activity	125.5
CC(=O)CC1CCCCN1.Cl (stereo not given) [PELLETIERINE HYDROCHLORIDE]	residual activity	95.02
CCCCCCCCCCCCCCCC(=O)OC/C=C(C)/C=C/C=C(C)/C=C/C1=C(C)CCCC1(C)C [VITAMIN A PALMITATE]	residual activity	85.92
CCN(CC)CCOC(=O)C(c1ccccc1)c1ccccc1.Cl [ADIPHENINE HYDROCHLORIDE]	residual activity	95.82
CC(C)=CCCC1(C)C=Cc2c(O)c3c(c(CC=C(C)C)c2O1)OC12C(=CC4CC1C(C)(C)OC2(C/C=C(/C)C(=O)O)C4O)C3=O (stereo not given) [DIHYDROGAMBOGIC ACID]	residual activity	17.26
CCOc1nc2cccc(C(=O)OC(C)OC(=O)OC3CCCCC3)c2n1Cc1ccc(-c2ccccc2-c2nnn[nH]2)cc1 (stereo not given)	residual activity	5.967
O=C(/C=C/C=C/c1ccc2c(c1)OCO2)N1CCCCC1	residual activity	97.82
C[C@@H]1O[C@@H](OC[C@H]2O[C@@H](Oc3c(-c4ccc(OCCO)c(OCCO)c4)oc4cc(OCCO)cc(O)c4c3=O)[C@H](O)[C@@H](O)[C@@H]2O)[C@H](O)[C@H](O)[C@H]1O	residual activity	49.51
O=C1c2ccccc2C(=O)c2c1ccc(O)c2O	residual activity	93.11
CCc1cccc2c3c([nH]c12)C(CC)(CC(=O)O)OCC3 (stereo not given)	residual activity	103.6
CC(C)=CCOc1cc2oc(=O)ccc2cc1O	residual activity	136
